Kindly state melting point for each of the entries shown.
// units = °C; emit number, no label

Lab note: CCc1nc2ccc(Cl)cn2c1C(=O)NCc1cc(F)c(N2CCN(S(=O)(=O)C(F)(F)F)C=N2)c(F)c1 [Compound 35] gave melting point of 152.93

Lab note: CCc1nc2n(c1C(=O)NCc1ccc(N3CCN(S(=O)(=O)C(F)(F)F)C=N3)cc1)CCCC2 [Compound 3] gave melting point of 189.22

Lab note: CCc1nc2ncc(C(=O)NC)cn2c1C(=O)NCc1ccc(N2CCN(S(=O)(=O)C(F)(F)F)C=N2)cc1 [Compound 61] gave melting point of 193.44

Lab note: CCc1nc2ccc(Cl)cn2c1C(=O)NCc1ccc(N2CCN(C=O)C=N2)cc1 [Compound 38] gave melting point of 255.93

Lab note: CCc1nc2cccc(Cl)n2c1C(=O)NCc1ccc(N2CCN(S(=O)(=O)C(F)(F)F)C(OC)=N2)cc1 [Compound 70] gave melting point of 138.71

Lab note: CCc1nc2ccc(Cl)cn2c1C(=O)NCc1ccc(N2CCN(c3nccs3)C(OC)=N2)cc1 [Compound 54] gave melting point of 233.23

Lab note: CCc1nc2ccc(Cl)cn2c1C(=O)NCc1ccc(N2CCN(S(=O)(=O)C(F)(F)F)C=N2)c(OC)c1 [Compound 25] gave melting point of 125.56

Lab note: CCc1nc2cc(Cl)c(OC)cn2c1C(=O)NCc1ccc(N2CCN(S(=O)(=O)C(F)(F)F)C=N2)cc1 [Compound 67] gave melting point of 206.99

Lab note: CCc1nc2cc(Cl)c(OC)cn2c1C(=O)NCc1ccc(N2CCN(S(=O)(=O)C(F)(F)F)C(OC)=N2)cc1 [Compound 45] gave melting point of 155.29

Lab note: CCc1nc2cc(OC)ccn2c1C(=O)NCc1ccc(N2CCN(S(=O)(=O)C(F)(F)F)C(OC)=N2)c(F)c1 [Compound 75] gave melting point of 135.16

Lab note: CCc1nc2ccc(Cl)cn2c1C(=O)NCc1ccc(N2CCN(S(=O)(=O)C(F)(F)F)C(C)=N2)cc1 [Compound 21] gave melting point of 157.49

Lab note: CCc1nc2ccc(Cl)cn2c1C(=O)NCc1ccc(N2CCN(S(=O)(=O)C(F)(F)F)C=N2)cc1F [Compound 16] gave melting point of 158.1

Lab note: COc1ccn2nc(C)c(C(=O)NCc3ccc(N4CCN(S(=O)(=O)C(F)(F)F)C=N4)cc3)c2c1 [Compound 14] gave melting point of 192.27

Lab note: CCc1nc2ccc(CCCOC)cn2c1C(=O)NCc1ccc(N2CCN(S(=O)(=O)C(F)(F)F)C=N2)cc1 [Compound 63] gave melting point of 159.95

Lab note: CCc1nc2n(c1C(=O)NCc1ccc(N3CCNC=N3)cc1)CCCC2 [Compound 57] gave melting point of 211.47

Lab note: CCc1nc2ccc(Cl)cn2c1C(=O)NCc1ccc(N2CCN(S(=O)(=O)CCOC)C=N2)cc1 [Compound 19] gave melting point of 196.34

Lab note: CCc1nc2ccc(OC)cn2c1C(=O)NCc1ccc(N2CCN(S(=O)(=O)C(F)(F)F)C=N2)cc1 [Compound 42] gave melting point of 147.57

Lab note: CCc1nc2ccc(Cl)cn2c1C(=O)NCc1ccc(N2CCN(C(C)=O)C=N2)cc1 [Compound 18] gave melting point of 245.36

Lab note: CCc1nc2ccc(Cl)cn2c1C(=O)NCc1ccc(N2CCN(C)C=N2)cc1 [Compound 15] gave melting point of 206.66

Lab note: CCc1nc2ccc(C#N)cn2c1C(=O)NCc1ccc(N2CCN(S(=O)(=O)C(F)(F)F)C=N2)cc1 [Compound 72] gave melting point of 216.25

Lab note: CCc1nc2ccc(Cl)cn2c1C(=O)NCc1ccc(N2CCN(S(=O)(=O)CC(C)C)C=N2)cc1 [Compound 17] gave melting point of 196.82

Lab note: CCc1nc2ccc(C#N)cn2c1C(=O)NCc1ccc(N2CCN(S(=O)(=O)C(F)(F)F)C(OC)=N2)c(F)c1 [Compound 73] gave melting point of 212.08

Lab note: O=C(NCc1ccc(N2CCN(S(=O)(=O)C(F)(F)F)C=N2)cc1)c1c(C2CC2)nc2ncc(Cl)cn12 [Compound 7] gave melting point of 208.41

Lab note: CCc1nc2c(Cl)c(OC)ccn2c1C(=O)NCc1ccc(N2CCN(S(=O)(=O)C(F)(F)F)C=N2)cc1 [Compound 39] gave melting point of 211.19

Lab note: CCc1nc2ncc(Cl)cn2c1C(=O)NCc1ccc(N2CCN(S(=O)(=O)C(F)(F)F)C=N2)cc1 [Compound 13] gave melting point of 215.87
